biological target: Peroxisome proliferator-activated receptor delta (Homo sapiens) (UniProt Q03181); assay: Inhibition of PPARdelta at 3 uM
Sequence (Q03181 whole entry): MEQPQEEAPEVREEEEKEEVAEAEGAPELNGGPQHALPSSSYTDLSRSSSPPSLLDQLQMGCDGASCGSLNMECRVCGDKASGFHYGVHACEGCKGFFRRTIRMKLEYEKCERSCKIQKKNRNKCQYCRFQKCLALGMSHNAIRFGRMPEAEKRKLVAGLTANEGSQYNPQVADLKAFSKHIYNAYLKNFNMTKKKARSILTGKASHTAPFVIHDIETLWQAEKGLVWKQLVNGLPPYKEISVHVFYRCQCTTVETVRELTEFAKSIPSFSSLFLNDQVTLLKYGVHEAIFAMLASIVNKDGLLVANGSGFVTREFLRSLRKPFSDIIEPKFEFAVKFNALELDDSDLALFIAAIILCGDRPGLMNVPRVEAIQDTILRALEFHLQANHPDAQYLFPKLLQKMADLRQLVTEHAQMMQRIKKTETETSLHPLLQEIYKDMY
endpoint: inhibition (%)

1. COc1ccc(N(CCCOc2ccc3ccccc3c2)CC(=O)O)cc1
20.2
2. c1ccc(CNCCCCOc2ccc3ccccc3c2)cc1
22.4
3. COc1ccc(N(C)CCCOc2ccc3ccccc3c2)cc1
19.3
4. c1ccc(CNCCOc2ccc3ccccc3c2)cc1
31.3
